System: HuTu80 (Stomach)
experiment: MTT cytotoxicity assay, 48 hours (Example 14)
Assay type: cell-based, human
assay_context: HuTu80, 10 pM
Non-standard residues stand in square brackets, D forms with d. Residues, ends and D or L forms follow the SMILES beside them. Ac5c = NC1(C(=O)O)CCCC1
measured_property: Percentage cytotoxicity (%)
Express the result in % but write the number alone.

Fill: Percentage cytotoxicity (HuTu80 (Stomach)) for this molecule CC(C)C[C@H](NC(=O)[C@H](Cc1c[nH]cn1)NC(=O)C1(NC(=O)[C@@H](NC(=O)[C@H](C)NC(=O)[C@H](Cc2c[nH]c3ccccc23)NC(=O)[C@H](CCC(N)=O)NC(=O)[C@H](N)Cc2ccccc2)C(C)C)CCCC1)C(N)=O [SEQ ID: 10, D-Phe-Gln-Trp-Ala-Val-Ac5c-His-Leu-NH2] (H-[dF]QWAV[Ac5c]HL-NH2; N-terminus assumed) 13.5

---

System: PA-1 (ovary)
experiment: MTT cytotoxicity assay, 72 hours (Example 13)
Assay type: cell-based, human
assay_context: PA-1, 1 nM
Non-standard residues stand in square brackets, D forms with d. Residues, ends and D or L forms follow the SMILES beside them. Aib = CC(C)(N)C(=O)O
Recorded Percent Cytotoxicity, one value per entry.
Write the quantity with the unit trailing the number.

Solved cases (3 shown):
{"columns": ["compound", "measured_property", "endpoint_value"],
 "data": [
  ["CC[C@H](C)[C@H](NC(=O)[C@H](Cc1c[nH]cn1)NC(=O)CNC(=O)[C@@H](NC(=O)C(C)(C)NC(=O)[C@H](Cc1c[nH]c2ccccc12)NC(=O)[C@H](CCC(N)=O)NC(=O)[C@H](N)Cc1ccccc1)C(C)C)C(N)=O [SEQ ID: 6, D-Phe-Gln-Trp-Aib-Val-Gly-His-Ile-NH2] (H-[dF]QW[Aib]VGHI-NH2; N-terminus assumed)", "Percent Cytotoxicity", "7.4 ± 1.0%"],
  ["CC(C)C[C@H](NC(=O)[C@H](Cc1c[nH]cn1)NC(=O)C(C)(C)NC(=O)[C@@H](NC(=O)[C@H](C)NC(=O)[C@@H](Cc1c[nH]c2ccccc12)NC(=O)[C@H](CCC(N)=O)NC(=O)[C@H](N)Cc1ccccc1)C(C)C)C(N)=O [SEQ ID: 5, D-Phe-Gln-D-Trp-Ala-Val-Aib-His-Leu-NH2] (H-[dF]Q[dW]AV[Aib]HL-NH2; N-terminus assumed)", "Percent Cytotoxicity", "16.0 ± 3.9%"],
  ["CC[C@H](C)[C@H](NC(=O)[C@H](Cc1c[nH]cn1)NC(=O)C(C)(C)NC(=O)[C@@H](NC(=O)[C@H](C)NC(=O)[C@H](Cc1c[nH]c2ccccc12)NC(=O)[C@H](CCC(N)=O)NC(=O)[C@H](N)Cc1ccccc1)C(C)C)C(N)=O [SEQ ID: 7, D-Phe-Gln-Trp-Ala-Val-Aib-His-Ile-NH2] (H-[dF]QWAV[Aib]HI-NH2; N-terminus assumed)", "Percent Cytotoxicity", "25.6 ± 2.9%"]
]}

Would you kindly look at the next entry?
Specify measured Percent Cytotoxicity for CC(C)C[C@H](NC(=O)[C@H](Cc1c[nH]cn1)NC(=O)CNC(=O)[C@@H](NC(=O)C(C)(C)NC(=O)[C@H](Cc1c[nH]c2ccccc12)NC(=O)[C@H](CCC(N)=O)NC(=O)[C@H](N)Cc1ccccc1)C(C)C)C(N)=O [SEQ ID: 4, D-Phe-Gln-Trp-Aib-Val-Gly-His-Leu-NH2] (H-[dF]QW[Aib]VGHL-NH2; N-terminus assumed) . 16.2 ± 2.9%
